- System: IGROV1 ovarian
- procedure text: NCI-60 one-dose screen, 48 h (100 = growth as untreated, 0 = no growth, -100 = all killed)
- run parameters: 10 µM
Compounds without any hit were thinned out: in the full panel of roughly 83,000, 20% have a hit.
Decide by growth: equal to or exceeding 80% means criterion met, less means criterion not met.

Cc1cc(=O)oc2cc(OCc3cn(CC(O)CO)nn3)ccc12 (stereo unspecified)	criterion met
Cc1nc(N)sc1Sc1nc2ccc(Cl)cc2c(=O)n1-c1ccc(Oc2ccccc2)cc1	criterion met
CC(C)OP(=O)(O)c1ncc(-c2ccc(C(F)(F)F)cc2)c(NC2CCCCCC2)n1	criterion not met

Prompt line: Say whether CCCCCCOc1ccc(/C=C/C(=O)c2ccc(B(O)O)cc2)cc1 shows growth of 80% or more.
Response line: criterion not met

Prompt line: Say whether CCCN(CCC)CCCNC(=O)c1cc2c(-c3ccc(OC)c(OC)c3)nn(C)c2s1 shows growth of 80% or more.
Response line: criterion not met

Prompt line: Say whether O=C(Nc1cccc([N+](=O)[O-])c1)NN1CCCCCC1 shows growth of 80% or more.
Response line: criterion met

Prompt line: Say whether O=C(O)CN1C(=O)C=CC1=O shows growth of 80% or more.
Response line: criterion met

Prompt line: Say whether CCc1ccc(Nc2cc(C)nc3nc(C)nn23)cc1 shows growth of 80% or more.
Response line: criterion not met

====

- Tested on: U251 CNS
- procedure text: NCI-60 one-dose screen, 48 h (100 = growth as untreated, 0 = no growth, -100 = all killed)
- run parameters: 10 µM
The panel holds about 83,000 compounds, 20% with a hit somewhere; the sample as a whole holds those more often.
quantity kind: growth (%)
Kindly provide the numeric value in % only, without the unit symbol.

Some solved entries appear below for comparison.
O=[N+]([O-])c1ccc2c(c1)Cc1cc(I)ccc1-2	96
COc1ccc2oc(=O)cc(C(c3ccc[nH]3)c3ccc[nH]3)c2c1	-7.61

Prompt line: Look up growth: C=CCc1cc(Nc2c3ccc(Cl)cc3nc3ccc(OC)cc23)cc(CN(CC)CC)c1O
Response line: 12.5

Prompt line: Look up growth: CCc1nn2c(-c3cc(OC)c(OC)c(OC)c3)c(-c3cc(OC)c(OC)c(OC)c3)nc2s1
Response line: 58.1

Prompt line: Look up growth: COc1ccc(C2CC(c3ccc(-c4ccccc4)cc3)=NN2c2ccc(S(N)(=O)=O)cc2)cc1 (stereo not given)
Response line: 66.8

Prompt line: Look up growth: COC(=O)c1cnc2c(c1)Oc1ccccc1-c1ccnn1-2
Response line: 90.7

Prompt line: Look up growth: NC(N)=NS(=O)(=O)c1ccc(Nc2ccc3nnc(-c4ccncc4)n3n2)cc1
Response line: 104

Prompt line: Look up growth: O=C(COc1ccc(-c2nc3ccccc3[nH]2)cc1)N=Nc1c(O)[nH]c2ccccc12
Response line: 55.9

Prompt line: Look up growth: Cc1ccc(S(=O)(=O)Oc2ccccc2-c2ccccc2)cc1
Response line: 24.8

Prompt line: Look up growth: COC(=O)[C@]12CC[C@@H](C)[C@H](C)[C@@H]1C1=CC[C@@H]3[C@@]4(C)CC(=O)[C@H](O)[C@@]5(C)COC(=C45)C[C@@]3(C)[C@]1(C)CC2
Response line: -88.7

Prompt line: Look up growth: C=C1C(=O)O[C@H]2[C@H]1CC/C(COC(=O)OCCCCCOC(=O)OC/C1=C/CC[C@@]3(C)O[C@H]3[C@H]3OC(=O)C(=C)[C@@H]3CC1)=C\CC[C@@]1(C)O[C@@H]21
Response line: 4.2

Prompt line: Look up growth: COc1ccc(CSc2nc3cc(OC)c(OC)cc3c(=O)n2-c2ccc(OC)cc2OC)cc1
Response line: 85.9

Prompt line: Look up growth: Cc1cc(=O)oc2cc(OCc3cn(CC(O)CO)nn3)ccc12 (stereo not given)
Response line: 100

Prompt line: Look up growth: O=C(Nc1ccc(CN2CCOCC2)cc1)c1ccc(-c2cc(Cl)ccc2Cl)o1
Response line: 32.4

Prompt line: Look up growth: COc1ccc(Cn2cc3c(c2-c2ccccc2)CC(C)(C)c2cnoc2-3)cc1
Response line: 43.8

Prompt line: Look up growth: NCCNc1ccc2cc(-c3nc4ccccc4[nH]3)c(=O)oc2c1
Response line: 94.9

Prompt line: Look up growth: COc1ccc(Cn2cc3c(c2-c2cc(OC)c(OC)c(OC)c2)CCc2cnoc2-3)cc1[N+](=O)[O-]
Response line: 39.8

Prompt line: Look up growth: C/C(=N\NC(N)=S)C(C)(C)O
Response line: 88.1

Prompt line: Look up growth: Cc1nc(Nc2nc3ccccc3o2)nc(-c2cccc([N+](=O)[O-])c2)c1C(=O)Nc1ccc(F)c(Cl)c1
Response line: 3.14

Prompt line: Look up growth: Cc1ccc(NS(=O)(=O)c2ccccc2)c(NS(=O)(=O)c2ccccc2)c1
Response line: 98.6
